Biological target: CSNK1A1 (Homo sapiens (Human), UniProt P48729)
Sequence (P48729 whole entry): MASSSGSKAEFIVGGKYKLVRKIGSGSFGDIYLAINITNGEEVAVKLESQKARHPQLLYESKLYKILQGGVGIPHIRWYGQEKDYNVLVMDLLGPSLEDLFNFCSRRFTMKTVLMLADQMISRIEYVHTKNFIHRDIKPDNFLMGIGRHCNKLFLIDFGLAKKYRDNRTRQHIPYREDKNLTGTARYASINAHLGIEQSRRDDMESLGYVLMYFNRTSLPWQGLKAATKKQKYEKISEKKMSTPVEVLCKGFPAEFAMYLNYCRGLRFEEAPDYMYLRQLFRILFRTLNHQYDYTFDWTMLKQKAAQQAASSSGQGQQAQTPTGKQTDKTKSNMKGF
pIC50: −log10 of the molar value.
Entries and their pIC50 values follow.

{"COMPOUND": "COCCN(C)C(=O)c1ccc(CC(=O)Nc2cc(-c3[nH]c4ccn(C)c(=O)c4c3-c3ccc(F)cc3)ccn2)cc1 [Example 143]", "pIC50": 8.40}
{"COMPOUND": "Cc1cn(C)c(=O)c2c(-c3ccc(F)cc3)c(-c3ccnc(NC(=O)C(C)c4ccc(F)cc4)c3)[nH]c12 (single isomer, unassigned; (-)) [Example 31]", "pIC50": 7.28}
{"COMPOUND": "CC(C(=O)Nc1cc(-c2[nH]c3ccn(C)c(=O)c3c2-c2ccc(F)cc2)ccn1)c1ccc(F)cc1 (single isomer, unassigned; (-)) [Example 101]", "pIC50": 7.92}
{"COMPOUND": "CN1CC(C)(C)c2[nH]c(-c3ccnc(NC(=O)C(CC(F)F)c4ccc(F)cc4)c3)c(-c3ccccc3)c2C1=O (single isomer, unassigned; (-)) [Example 151]", "pIC50": 7.77}
{"COMPOUND": "CC(C(=O)Nc1cc(-c2[nH]c3ccn(C)c(=O)c3c2-c2ccccc2)ccn1)c1ccc(F)cc1 (racemic) [Example 103]", "pIC50": 8.30}
{"COMPOUND": "CC(C(=O)Nc1cc(-c2[nH]c3c(c2-c2cccnc2)C(=O)NC(C)(C)C3)ccn1)c1ccc(F)cc1 (single isomer, unassigned) [Example 98]", "pIC50": 7.15}
